# assay.system: mouse IDO1 (Mus musculus, UniProt P28776)
# Construct: The murine PANC02 pancreatic ductal adenocarcinoma cell line was routinely maintained in DMEM media; endogenous in cells
# Sequence (P28776 whole entry): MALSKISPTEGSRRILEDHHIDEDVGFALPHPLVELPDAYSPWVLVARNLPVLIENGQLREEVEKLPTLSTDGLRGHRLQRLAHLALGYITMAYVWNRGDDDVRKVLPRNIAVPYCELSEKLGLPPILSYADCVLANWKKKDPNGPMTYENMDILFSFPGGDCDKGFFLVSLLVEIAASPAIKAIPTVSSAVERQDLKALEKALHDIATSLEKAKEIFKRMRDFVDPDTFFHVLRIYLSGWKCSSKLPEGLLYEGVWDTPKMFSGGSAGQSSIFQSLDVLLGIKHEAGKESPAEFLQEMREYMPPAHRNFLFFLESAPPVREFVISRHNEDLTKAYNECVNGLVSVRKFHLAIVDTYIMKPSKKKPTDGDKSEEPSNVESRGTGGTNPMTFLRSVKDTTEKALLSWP
# experiment.summary: Mouse IDO1 cell-based assay (PANC02 cells, mouse IFNgamma-induced, N-formylkynurenine/L-tryptophan by RFMS)
# particulars: 30 ng/mL mouse IFNgamma, 48 hours
# Description: The murine PANC02 pancreatic ductal adenocarcinoma cell line was routinely maintained in DMEM media containing 10% FBS. Cells (3,000/well) were seeded onto a 384 well plate in 50 μl of media and incubated at 37° C., 5% CO2 overnight. […] Samples were analyzed via RFMS to quantify N-Formyl Kynurenine (AUC) and L-tryptophan (AUC). […] Dose-response curves were analyzed using IC50 regression curve fitting (GeneData Screener). […]
pIC50: −log10 of the molar value.
value.kind: pIC50

Task: Can you look up the measured pIC50 of CCOC(=O)C(N[C@@H]1C[C@@H]2[C@H](C1)[C@H]2C(CC)NC(=O)c1ccc(Cl)cc1)c1ccccc1 (stereo partly drawn) for me?
Result: < 5.30

Task: Can you look up the measured pIC50 of CCC(NC(=O)c1ccc(Cl)cc1)[C@H]1[C@@H]2C[C@@H](C(C(=O)OC)c3ccccc3)C[C@@H]21 (mixture of isomers) [Compound 203] for me?
Result: > 6.30

Task: Can you look up the measured pIC50 of O=C(Nc1ccc(Cl)cc1)[C@@H]1[C@@H]2CN(c3ncnc4ccc(F)cc34)C[C@@H]21 for me?
Result: < 5.30
